Values were extracted from ChEMBL document CHEMBL4513216.

Test Details: Toxicity liver stage against HepG2, at 10uM
Format: cell-based
Parameters: test concentration 10 uM, cell line HepG2-A16-CD81EGFP
Test Context: human, HepG2-A16-CD81EGFP cells; read-out: INHIBITION

Compound	cytotoxicity at 10 µM [%]
Cc1cc(NC2CCN(c3ccc(F)cc3)CC2)n2nc(C)cc2n1	-0.527
CN(Cc1ccncn1)C(=O)c1cccc(CCC(C)(C)O)c1	-4.27
O[C@H]1COCCN(Cc2cccc(C(F)(F)F)c2)C1	-1.8
CC(C)c1nnc2n1CCN(C(=O)c1ccc(Cn3cccc3)cc1)C2	-4.28
COc1cccc2c1OCC(C(=O)N1CCN(CCS(C)(=O)=O)CC1)C2 (stereo unspecified)	1.28
OC1(CN2CCC(Oc3cccnc3)CC2)CNCCOC1 (stereo unspecified)	5.92
c1ccc2c(c1)CC(n1ccnc1-c1cc3n(n1)CCNC3)CO2 (stereo unspecified)	4.58
Cc1cc(S(=O)(=O)N2CCCc3ccc(F)cc32)sc1C(=O)O	18.1
COCCC1(CO)CCCN(Cc2ccc(C(F)(F)F)cc2)C1 (stereo unspecified)	-153
c1cncc(CN2CCC(NCCc3ccc4c(c3)CCO4)CC2)c1	5.41
CC(CNC(=O)c1ccc(Cl)cc1F)N1CCCC1 (stereo unspecified)	-3.85
